Some compounds, each annotated with its measured Cmax.
assay: in vivo pharmacokinetics in CD1 male mice; conditions: mouse, 5 mg/kg PO, plasma
Reply numerically in ng/mL, unit not repeated.

compound | property label | units symbol | reported result
CC(C)(C)c1ccc(C(C)(C)C)c(NC(=O)C2CCC3C4CNC5=CC(=O)CC[C@]5(C)C4CC[C@]23C)c1 (some centres unmarked) | Cmax | ng/mL | 501

State the recorded Cmax for this entry: C[C@]12CCC3C(CNC4=CC(=O)CC[C@@]43C)C1CCC2C(=O)NC(c1ccc(F)cc1)c1ccc(F)cc1 (some centres unmarked)
2210
